- Experimental target: Microtubule-associated protein tau (Homo sapiens)
- Measurement protocol: qHTS for Inhibitors of Tau Fibril Formation, Thioflavin T Binding; also: nearly all actives have a fitted effect of over 55% in size
- Experimental parameters: recombinant tau K18 P301L (four-repeat tau fragment), heparin-induced fibrillization, ThT fluorescence; series mostly up to 57.4 µM
Out of some 270,000 compounds screened, about 5,800 (2.1%) were called active. Not shown: some 16% with an inconclusive outcome. Calls follow the shape of the dose curve; as a rule, active = well fitted inhibition curve with a large enough effect; inconclusive = small, poorly fitted or top-dose-only effect; inactive = flat fitted curve, though single readings scatter. This is one part of a sample in which actives are shown more often than they occur.
Lab note: assign the record to one of active, inactive

Below, 5 compounds whose answers are already recorded.
INSERT INTO measurements (compound, class_name) VALUES
  ('Cc1ccc(NC(=O)c2oc3ccccc3c2NC(=O)Cc2cccs2)cc1', 'inactive'),
  ('COC(=O)CSc1nc(C)c2ccc(OC)cc2n1', 'inactive'),
  ('Cc1ccc(CN2CCC(CNC(=O)c3cnn(-c4ccc(C)cc4)c3C3CCN(C(=O)OC(C)(C)C)CC3)CC2)cc1', 'inactive'),
  ('COc1ccc2c(c1)C(C)=CC(C)(C)N2C(=O)Nc1ccccc1', 'active'),
  ('C=CCNC(=S)N/N=C/c1ccc(C)s1', 'inactive');

Exam item: For this compound, state the assay outcome: CNC(=S)N/N=C/c1ccc(N2CCOCC2)s1
Marked response: active

Exam item: For this compound, state the assay outcome: Cc1nc2nc(SCC(=O)NC3CCC(C)CC3)nn2c(C)c1Cc1ccccc1Cl (stereo not drawn)
Marked response: inactive

Exam item: For this compound, state the assay outcome: O=C1c2ccccc2-c2ncnc3c(N4CCOCC4)cc(N4CCOCC4)c1c23
Marked response: active

Exam item: For this compound, state the assay outcome: Cc1ccc(C)c(N2C(=O)N(Cc3c(F)cccc3Cl)c3ccccc3S2(=O)=O)c1
Marked response: inactive

Exam item: For this compound, state the assay outcome: COc1ccc(-c2csc(NC(=O)CCCc3cccs3)n2)cc1
Marked response: inactive

Exam item: For this compound, state the assay outcome: COc1cc(C(CC(=O)NCCC(C)C)N2Cc3ccccc3C2=O)cc(OC)c1OC (stereo not drawn)
Marked response: inactive

Exam item: For this compound, state the assay outcome: CCc1ccccc1NC(=O)c1sc2nc3c(cc2c1N)CN(Cc1ccccc1)CC3
Marked response: inactive

Exam item: For this compound, state the assay outcome: CC1=CC(C)(C)N(C(=O)CSc2nnc(-c3ccccc3)o2)c2ccc(C)cc21
Marked response: inactive
